Assay: Cytotoxicity against human HL7702 cells after 48 hrs by MTT assay
Format: functional, cell-based
Conditions: L02, 48 h
Below, each entry is listed with its recorded IC50.

[
  {
    "Smiles input": "CC(C)c1ccc2c(c1)/C(=N\\O)C[C@H]1[C@](C)(C(=O)N[C@@H](Cc3ccccc3)C(=O)Nc3ccccc3F)CCC[C@]21C",
    "Output unit": "µM",
    "IC50": 57.5
  },
  {
    "Smiles input": "CC(C)c1ccc2c(c1)C(=O)C[C@H]1[C@](C)(C(=O)N[C@H](Cc3ccccc3)C(=O)Nc3ccccc3F)CCC[C@]21C",
    "Output unit": "µM",
    "IC50": 53.3
  },
  {
    "Smiles input": "COc1ccc(NC(=O)[C@@H](Cc2ccccc2)NC(=O)[C@]2(C)CCC[C@]3(C)c4ccc(C(C)C)cc4C(=O)C[C@@H]23)cc1",
    "Output unit": "µM",
    "IC50": 55.4
  },
  {
    "Smiles input": "CC(C)c1ccc2c(c1)/C(=N\\O)C[C@H]1[C@](C)(C(=O)N[C@@H](Cc3ccccc3)C(=O)Nc3ccccc3Cl)CCC[C@]21C",
    "Output unit": "µM",
    "IC50": 45.9
  },
  {
    "Smiles input": "CC(C)c1ccc2c(c1)C(=O)C[C@H]1[C@](C)(C(=O)N[C@H](Cc3ccccc3)C(=O)Nc3ccc(Cl)cc3)CCC[C@]21C",
    "Output unit": "µM",
    "IC50": 76.3
  },
  {
    "Smiles input": "CC(C)c1ccc2c(c1)C(=O)C[C@H]1[C@](C)(C(=O)N[C@H](Cc3ccccc3)C(=O)Nc3ccc(F)cc3)CCC[C@]21C",
    "Output unit": "µM",
    "IC50": 52.4
  },
  {
    "Smiles input": "CC(C)c1ccc2c(c1)/C(=N\\O)C[C@H]1[C@](C)(C(=O)N[C@H](Cc3ccccc3)C(=O)Nc3ccccc3F)CCC[C@]21C",
    "Output unit": "µM",
    "IC50": 54.8
  },
  {
    "Smiles input": "COc1ccc(NC(=O)[C@H](Cc2ccccc2)NC(=O)[C@]2(C)CCC[C@]3(C)c4ccc(C(C)C)cc4/C(=N\\O)C[C@@H]23)cc1",
    "Output unit": "µM",
    "IC50": 49.6
  },
  {
    "Smiles input": "COc1cc(NC(=O)[C@H](Cc2ccccc2)NC(=O)[C@]2(C)CCC[C@]3(C)c4ccc(C(C)C)cc4/C(=N\\O)C[C@@H]23)cc(OC)c1OC",
    "Output unit": "µM",
    "IC50": 49.6
  },
  {
    "Smiles input": "CC(C)c1ccc2c(c1)/C(=N\\O)C[C@H]1[C@](C)(C(=O)N[C@@H](Cc3ccccc3)C(=O)Nc3ccc(F)cc3)CCC[C@]21C",
    "Output unit": "µM",
    "IC50": 49.7
  },
  {
    "Smiles input": "CC(C)c1ccc2c(c1)/C(=N\\O)C[C@H]1[C@](C)(C(=O)N[C@H](Cc3ccccc3)C(=O)Nc3ccc(F)cc3)CCC[C@]21C",
    "Output unit": "µM",
    "IC50": 53.8
  },
  {
    "Smiles input": "CC(C)c1ccc2c(c1)/C(=N\\O)C[C@H]1[C@](C)(C(=O)N[C@H](Cc3ccccc3)C(=O)Nc3ccccc3Cl)CCC[C@]21C",
    "Output unit": "µM",
    "IC50": 48.2
  },
  {
    "Smiles input": "CC(C)c1ccc2c(c1)C(=O)C[C@H]1[C@](C)(C(=O)N[C@@H](Cc3ccccc3)C(=O)Nc3ccccc3)CCC[C@]21C",
    "Output unit": "µM",
    "IC50": 51.6
  },
  {
    "Smiles input": "CC(C)c1ccc2c(c1)/C(=N\\O)C[C@H]1[C@](C)(C(=O)N[C@H](Cc3ccccc3)C(=O)Nc3ccc(Cl)cc3)CCC[C@]21C",
    "Output unit": "µM",
    "IC50": 57.9
  },
  {
    "Smiles input": "COc1cc(NC(=O)[C@@H](Cc2ccccc2)NC(=O)[C@]2(C)CCC[C@]3(C)c4ccc(C(C)C)cc4/C(=N\\O)C[C@@H]23)cc(OC)c1OC",
    "Output unit": "µM",
    "IC50": 56.2
  },
  {
    "Smiles input": "CC(C)c1ccc2c(c1)C(=O)C[C@H]1[C@](C)(C(=O)N[C@H](Cc3ccccc3)C(=O)Nc3ccccc3Cl)CCC[C@]21C",
    "Output unit": "µM",
    "IC50": 46.5
  },
  {
    "Smiles input": "CC(C)c1ccc2c(c1)C(=O)C[C@H]1[C@](C)(C(=O)N[C@@H](Cc3ccccc3)C(=O)Nc3ccc(Cl)cc3)CCC[C@]21C",
    "Output unit": "µM",
    "IC50": 57.8
  },
  {
    "Smiles input": "COc1ccccc1NC(=O)[C@@H](Cc1ccccc1)NC(=O)[C@]1(C)CCC[C@]2(C)c3ccc(C(C)C)cc3C(=O)C[C@@H]12",
    "Output unit": "µM",
    "IC50": 55.7
  },
  {
    "Smiles input": "COc1ccc(NC(=O)[C@H](Cc2ccccc2)NC(=O)[C@]2(C)CCC[C@]3(C)c4ccc(C(C)C)cc4C(=O)C[C@@H]23)cc1",
    "Output unit": "µM",
    "IC50": 59.6
  },
  {
    "Smiles input": "CC(C)c1ccc2c(c1)C(=O)C[C@H]1[C@](C)(C(=O)N[C@H](Cc3ccccc3)C(=O)Nc3ccccc3)CCC[C@]21C",
    "Output unit": "µM",
    "IC50": 53.3
  },
  {
    "Smiles input": "COc1ccccc1NC(=O)[C@H](Cc1ccccc1)NC(=O)[C@]1(C)CCC[C@]2(C)c3ccc(C(C)C)cc3C(=O)C[C@@H]12",
    "Output unit": "µM",
    "IC50": 57.5
  },
  {
    "Smiles input": "COc1cc(NC(=O)[C@@H](Cc2ccccc2)NC(=O)[C@]2(C)CCC[C@]3(C)c4ccc(C(C)C)cc4C(=O)C[C@@H]23)cc(OC)c1OC",
    "Output unit": "µM",
    "IC50": 57.4
  },
  {
    "Smiles input": "COc1ccccc1NC(=O)[C@@H](Cc1ccccc1)NC(=O)[C@]1(C)CCC[C@]2(C)c3ccc(C(C)C)cc3/C(=N\\O)C[C@@H]12",
    "Output unit": "µM",
    "IC50": 57.9
  },
  {
    "Smiles input": "CC(C)c1ccc2c(c1)/C(=N\\O)C[C@H]1[C@](C)(C(=O)N[C@@H](Cc3ccccc3)C(=O)Nc3ccc(Cl)cc3)CCC[C@]21C",
    "Output unit": "µM",
    "IC50": 60.8
  },
  {
    "Smiles input": "CC(C)c1ccc2c(c1)C(=O)C[C@H]1[C@](C)(C(=O)N[C@@H](Cc3ccccc3)C(=O)Nc3ccccc3Cl)CCC[C@]21C",
    "Output unit": "µM",
    "IC50": 53.8
  },
  {
    "Smiles input": "COc1ccccc1NC(=O)[C@H](Cc1ccccc1)NC(=O)[C@]1(C)CCC[C@]2(C)c3ccc(C(C)C)cc3/C(=N\\O)C[C@@H]12",
    "Output unit": "µM",
    "IC50": 58.8
  }
]
